B1: POU domain, class 3, transcription factor 2, residues 356 to 411; numbered along this chain, P20265 (parent)
chain: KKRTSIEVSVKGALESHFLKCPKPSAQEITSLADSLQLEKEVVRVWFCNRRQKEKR

variants of: B1; assay: abundance fitness (aPCA) (normalised: wild type 0, dead -1); higher = more abundant; growth selection in yeast, the domain comes from the species named; conditions: Homo sapiens
Entry class follows abundance fitness: band A: < -0.4; band B: ≥ -0.4 and < -0.1; band C: ≥ -0.1

KKRTSIEVSVKGALESHFLKCPKPSAQEITSLADSLQLEKEVVRVWFDNRRQKEKR [C48D] ... band C
KKRTSIEVSVKGALESHFLKCPKPSAQDITSLADSLQLEKEVVRVWFCNRRQKEKR [E28D] ... band B
KKRTSIEVSVKGALESHFLKCPKPSAQEITSLADSLQLEKEVVRVWFNNRRQKEKR [C48N] ... band B
KKRTSIEPSVKGALESHFLKCPKPSAQEITSLADSLQLEKEVVRVWFCNRRQKEKR [V8P] ... band C
KKRTSIEVSVKGALESHSLKCPKPSAQEITSLADSLQLEKEVVRVWFCNRRQKEKR [F18S] ... band A
KKRTSIEVSVKGALESHFLKCPKPSAQEITSLADSLQLEKEVVCVWFCNRRQKEKR [R44C] ... band A
KKRTSIEVSVKGALESHFLKCPKPSAQEITSLADSLQLEKETVRVWFCNRRQKEKR [V42T] ... band C
KKRTSIEVSVKGALESHFLKCPKPSAQEITSLADWLQLEKEVVRVWFCNRRQKEKR [S35W] ... band B
KKVTSIEVSVKGALESHFLKCPKPSAQEITSLADSLQLEKEVVRVWFCNRRQKEKR [R3V] ... band C
KKRTSIEVSVKGALESHFLKCPKPSAQEITSLAMSLQLEKEVVRVWFCNRRQKEKR [D34M] ... band C
KKRTSIEVSVKGALISHFLKCPKPSAQEITSLADSLQLEKEVVRVWFCNRRQKEKR [E15I] ... band A
KKRTSIEVSVKGALESHFLKCPKPSAQCITSLADSLQLEKEVVRVWFCNRRQKEKR [E28C] ... band B
KKRTSIEVSVKGALESHLLKCPKPSAQEITSLADSLQLEKEVVRVWFCNRRQKEKR [F18L] ... band A
KKRTSIEVSVKGALESHFLKCPKPSAQEITSLADSLQLEKEVVRVWFCNRRQKEWR [K55W] ... band B
KKRTSIEVSVKGALESHFLKCPKPSAMEITSLADSLQLEKEVVRVWFCNRRQKEKR [Q27M] ... band B
KKRTSIEVSVKGALESHFLKCLKPSAQEITSLADSLQLEKEVVRVWFCNRRQKEKR [P22L] ... band A
KKRTSIEVSVKGALESHFLKCPKPSAQEITSLADSLQLEKEVVRVRFCNRRQKEKR [W46R] ... band A
KKRTSIEVSVKGALESHFLKCPKPSAQEIDSLADSLQLEKEVVRVWFCNRRQKEKR [T30D] ... band C
KKRTSIEVSVKGALESHFLKCPKPSAQEIHSLADSLQLEKEVVRVWFCNRRQKEKR [T30H] ... band B
KKRTSIEVSVKGALEIHFLKCPKPSAQEITSLADSLQLEKEVVRVWFCNRRQKEKR [S16I] ... band B
KKRTSIMVSVKGALESHFLKCPKPSAQEITSLADSLQLEKEVVRVWFCNRRQKEKR [E7M] ... band C
KKRTSIEVSVKGALESHFLKCPKPSAQEITSLADSLQLEKEVVRVWFCNRRNKEKR [Q52N] ... band C
KKRTSIEVSVKGALESHFLKCPKPSAQEVTSLADSLQLEKEVVRVWFCNRRQKEKR [I29V] ... band B
KKRTSIEVSVKGALESHFLKCPKPSAQEITSLADSLQLEKEVVRVWFCNRRGKEKR [Q52G] ... band C
KKRTSIEVSVKGALESHFLKCPKPSAQEITSLADSLQLEKEVARVWFCNRRQKEKR [V43A] ... band A
KKRTSIEVSVKGALMSHFLKCPKPSAQEITSLADSLQLEKEVVRVWFCNRRQKEKR [E15M] ... band A
KKRTSIEVSVKGALESHFLKCPKPSAQEATSLADSLQLEKEVVRVWFCNRRQKEKR [I29A] ... band A
KSRTSIEVSVKGALESHFLKCPKPSAQEITSLADSLQLEKEVVRVWFCNRRQKEKR [K2S] ... band B
KKRTSIEVSVKCALESHFLKCPKPSAQEITSLADSLQLEKEVVRVWFCNRRQKEKR [G12C] ... band C
KKRTSIEVSVKGALESHFLKCPKPSAQEFTSLADSLQLEKEVVRVWFCNRRQKEKR [I29F] ... band A
KFRTSIEVSVKGALESHFLKCPKPSAQEITSLADSLQLEKEVVRVWFCNRRQKEKR [K2F] ... band B
KKRTSIEVSVKGALESHFLKCPKPSAQEITSLADSLQLEKEVVRVWFCNRRQKDKR [E54D] ... band B
KKRTSIEVSVKGALESHFLKCPKPSAQEITSLADSLQLHKEVVRVWFCNRRQKEKR [E39H] ... band C
KKRTSIEVSVKGALESHFLKCPKPSAQEITSLADSLQLEKEVVRVWFCGRRQKEKR [N49G] ... band B
KKFTSIEVSVKGALESHFLKCPKPSAQEITSLADSLQLEKEVVRVWFCNRRQKEKR [R3F] ... band C
KKRTSIEVSTKGALESHFLKCPKPSAQEITSLADSLQLEKEVVRVWFCNRRQKEKR [V10T] ... band C
KKRTSIEVSVKGALESHFLKCPKPSAQEITSLADSLQLEKQVVRVWFCNRRQKEKR [E41Q] ... band B
KKRTSIEVSVKGALESHGLKCPKPSAQEITSLADSLQLEKEVVRVWFCNRRQKEKR [F18G] ... band A
KKRTSIELSVKGALESHFLKCPKPSAQEITSLADSLQLEKEVVRVWFCNRRQKEKR [V8L] ... band C
KKRTSIEVSVKGALESHFLKCPKPSAQEITSLADSLQLEKEVVRTWFCNRRQKEKR [V45T] ... band C
KKRTSIEVSVKGALESHFLKCPKPSAQEITSLADSLQLEQEVVRVWFCNRRQKEKR [K40Q] ... band C
KKRTSIEVLVKGALESHFLKCPKPSAQEITSLADSLQLEKEVVRVWFCNRRQKEKR [S9L] ... band B
KKRTSIEVSVKGALESHFLKLPKPSAQEITSLADSLQLEKEVVRVWFCNRRQKEKR [C21L] ... band A
KKRTSIEVSVKGALESHFLKCPKPSAQEITSLADSLQLEKEVVRVWFCNRRQKEKY [R56Y] ... band A
KKRTSIEVSVKGALESHFLKCPKPSQQEITSLADSLQLEKEVVRVWFCNRRQKEKR [A26Q] ... band C
KKRTSIEVSVKGALESHFLKCPKPSAQWITSLADSLQLEKEVVRVWFCNRRQKEKR [E28W] ... band A
KKRTSIEVSVKGALESHFLKCPKPSAQMITSLADSLQLEKEVVRVWFCNRRQKEKR [E28M] ... band A
KKRTSIEVSVKGALESHFLKCPKPSAQEITSLAWSLQLEKEVVRVWFCNRRQKEKR [D34W] ... band C
KKRTSIEVSVKGALESHFLKCPKPSAQEITSLADSLQLEDEVVRVWFCNRRQKEKR [K40D] ... band B
KKRTSIEVSVKGALESHFLKCPKPSAQEITSLADSLQLEKEVVRVWFCNRDQKEKR [R51D] ... band B
KKRTSIEVSVKGALESHFLKCPKPSAQEITSLADSLQLEKEVRRVWFCNRRQKEKR [V43R] ... band A
KKRTSILVSVKGALESHFLKCPKPSAQEITSLADSLQLEKEVVRVWFCNRRQKEKR [E7L] ... band B
KKRTSIEVSVKGALESHALKCPKPSAQEITSLADSLQLEKEVVRVWFCNRRQKEKR [F18A] ... band A
KKRTSIEVSVKGALESHFLKCPKPSAQEITSLADCLQLEKEVVRVWFCNRRQKEKR [S35C] ... band B
KKRTSIEVSVKGALESHFLKCPKPSAQEMTSLADSLQLEKEVVRVWFCNRRQKEKR [I29M] ... band C
KKRTSIEVSVKGALESHFLKCPKPNAQEITSLADSLQLEKEVVRVWFCNRRQKEKR [S25N] ... band B
KKRTSIEVSVKGALESHFLKCPKPSAFEITSLADSLQLEKEVVRVWFCNRRQKEKR [Q27F] ... band B
KKRTSIEVSVKGAGESHFLKCPKPSAQEITSLADSLQLEKEVVRVWFCNRRQKEKR [L14G] ... band A
KKRTSIEVSVKGALESHFLKCPKPSAQEITSEADSLQLEKEVVRVWFCNRRQKEKR [L32E] ... band A
KKSTSIEVSVKGALESHFLKCPKPSAQEITSLADSLQLEKEVVRVWFCNRRQKEKR [R3S] ... band C
KKRTSIEVSVKGALESHFLKCPKPSAQEITSLADSLQLEKEVVQVWFCNRRQKEKR [R44Q] ... band C
KKRTSIEVSVKGALESHFLKCPKPSAQEITSLADSLQLEKEWVRVWFCNRRQKEKR [V42W] ... band B
KKRTSIEVSVKGALESHFLKWPKPSAQEITSLADSLQLEKEVVRVWFCNRRQKEKR [C21W] ... band A
KKRTSHEVSVKGALESHFLKCPKPSAQEITSLADSLQLEKEVVRVWFCNRRQKEKR [I6H] ... band B
KKRTSIEVSVKGALESHFDKCPKPSAQEITSLADSLQLEKEVVRVWFCNRRQKEKR [L19D] ... band B
KKRTSIEVSVKGALESHFLKCPKPSAQEITSLADSLQLEKEVVRNWFCNRRQKEKR [V45N] ... band C
KKRTSIEVSIKGALESHFLKCPKPSAQEITSLADSLQLEKEVVRVWFCNRRQKEKR [V10I] ... band C
KKRTSIEVSKKGALESHFLKCPKPSAQEITSLADSLQLEKEVVRVWFCNRRQKEKR [V10K] ... band C
KKRTSIEVSVKGALESHFLKCPKPSAQEITSLADSLQLKKEVVRVWFCNRRQKEKR [E39K] ... band B
KKRTSIEVSVKGALESHFKKCPKPSAQEITSLADSLQLEKEVVRVWFCNRRQKEKR [L19K] ... band B
KKRTSIEVSVKGALESHFLKCPKPSAQEITSLADSLQLEKEVSRVWFCNRRQKEKR [V43S] ... band A
KKRTSIEVSVHGALESHFLKCPKPSAQEITSLADSLQLEKEVVRVWFCNRRQKEKR [K11H] ... band C
KKRHSIEVSVKGALESHFLKCPKPSAQEITSLADSLQLEKEVVRVWFCNRRQKEKR [T4H] ... band B
